The reported measurements were obtained from patent US8791102B2.

Target: human S1P1 receptors (Homo sapiens)
Sequence (P21453 whole entry): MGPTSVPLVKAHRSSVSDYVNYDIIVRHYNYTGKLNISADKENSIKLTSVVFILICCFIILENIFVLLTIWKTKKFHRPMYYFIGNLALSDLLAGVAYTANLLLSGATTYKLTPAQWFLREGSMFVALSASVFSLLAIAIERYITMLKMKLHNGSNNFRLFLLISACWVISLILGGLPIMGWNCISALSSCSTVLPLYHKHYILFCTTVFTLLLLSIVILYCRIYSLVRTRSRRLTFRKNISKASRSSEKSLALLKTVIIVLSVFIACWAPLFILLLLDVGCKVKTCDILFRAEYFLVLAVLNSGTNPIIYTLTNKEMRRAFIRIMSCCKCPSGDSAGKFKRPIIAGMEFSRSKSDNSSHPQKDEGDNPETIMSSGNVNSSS
Experiment: S1P1R antagonist assay (fluorescent membrane potential dye, cAMP readout)
Conditions: HEK293 cells expressing human S1P1 receptors and CNG channel; 500 nM NECA; S1P1R agonist 10 nM; 90 minutes; read-out: EC50 or IC50 value
metric: IC50

Record summary for CS(=O)(=O)c1ccc(C(=O)NC(COCc2ccccc2)C(=O)Nc2ccc(Oc3ccccc3)cc2)cc1 (stereo not drawn) [Compound 333] : reported IC50 = > 1000 nM

Record summary for COc1ccc(OC)c(CC(=O)NC(COCc2ccccc2)C(=O)Nc2ccc(Oc3ccccc3)cc2)c1 (stereo not drawn) [Compound 280] : reported IC50 = > 1000 nM

Record summary for O=C(Cc1cnc[nH]1)N[C@@H](CCc1ccccc1)C(=O)Nc1ccc(Oc2ccc(Cl)cc2)cc1 [Compound 157] : reported IC50 = ≤ 300 nM

Record summary for O=C(Cc1ccccc1Cl)NC(COCc1ccccc1)C(=O)Nc1ccc(Oc2ccccc2)cc1 (stereo not drawn) [Compound 391] : reported IC50 = > 1000 nM

Record summary for N#Cc1ccc(C(=O)NC(COCc2ccccc2)C(=O)Nc2ccc(Oc3ccccc3)cc2)cc1 (stereo not drawn) [Compound 380] : reported IC50 = > 1000 nM

Record summary for O=C(CC(F)(F)F)NC(COCc1ccccc1)C(=O)Nc1ccc(Oc2ccccc2)cc1 (stereo not drawn) [Compound 22] : reported IC50 = 300 to 1000 nM

Record summary for O=C(CN1CCC2CCCCC2C1)N[C@@H](COCc1ccccc1)C(=O)Nc1ccc(Oc2ccc(F)cc2)cc1 (stereo partly drawn) [Compound 222] : reported IC50 = 300 to 1000 nM

Record summary for O=C(Nc1ccc(Oc2ccc(F)cc2)cc1)[C@@H]1C[C@@H](Cc2ccc(F)cc2F)CN1C(=O)Cn1cncn1 [Compound 53] : reported IC50 = ≤ 300 nM

Record summary for O=C(CCC(=O)N1C[C@H](Cc2ccccc2)C[C@H]1C(=O)Nc1ccc(Oc2ccc(F)cc2)cc1)c1ccccc1 [Compound 124] : reported IC50 = ≤ 300 nM

Record summary for CN(C(=O)Cc1c[nH]cn1)[C@@H](COCc1ccccc1)C(=O)Nc1ccc(Oc2ccccc2)cc1 [Compound 203] : reported IC50 = ≤ 300 nM

Record summary for O=C(COc1ccc(F)cc1)NC(COCc1ccccc1)C(=O)Nc1ccc(Oc2ccccc2)cc1 (stereo not drawn) [Compound 368] : reported IC50 = > 1000 nM

Record summary for O=C(Cn1cncn1)N1C[C@H](Cc2ccccc2)C[C@H]1c1nc2cc(Oc3ccc(F)cc3)ccc2[nH]1 [Compound 12] : reported IC50 = 300 to 1000 nM

Record summary for CCOCCC(=O)NC(COCc1ccccc1)C(=O)Nc1ccc(Oc2ccccc2)cc1 (stereo not drawn) [Compound 376] : reported IC50 = > 1000 nM

Record summary for Cc1noc(C)c1CC(=O)N[C@@H](COCc1ccccc1)C(=O)Nc1ccc(Oc2ccc(F)cc2)cc1 [Compound 150] : reported IC50 = ≤ 300 nM

Record summary for COc1cc(OC)cc(C(=O)NC(COCc2ccccc2)C(=O)Nc2ccc(Oc3ccccc3)cc2)c1 (stereo not drawn) [Compound 316] : reported IC50 = > 1000 nM
